Several reports have described pIC50 for ROCK2 (Homo sapiens, UniProt O75116); a selection of those results is presented here.
pIC50: −log10 of the molar value.

Below, each entry is followed by its recorded pIC50 result.
For [H][C@]1(c2n[nH]c(=O)c3ccccc32)C[C@]2(C[C@@H](NC(=O)c3ccc(-c4cnn(C5CC5)c4)c(F)c3)C2)C1 (some centres unmarked) , what is its reported pIC50?
8.30 to 8.70

For `O=c1n(Cc2cc(F)ccc2F)ccn1-c1ccc(-c2cn[nH]c2)cc1` , what is its reported pIC50?
6.70 to 7.70

For `Cc1nn(-c2ccc(-c3cn[nH]c3)cc2)c(=O)n1Cc1cc(F)cc(F)c1` , what is its reported pIC50?
7.30 to 8.30

Further cases:
For COc1cc(F)cc(C(CN(C)C)NC(=O)N2CCc3cc(-c4c[nH]nc4F)c(F)cc32)c1 (racemic) , what is its reported pIC50?
≥ 7.30
